The values you see were collected from PubChem BioAssay AID485364.

Target: Schistosoma mansoni thioredoxin glutathione reductase (TGR)
Assay: qHTS Assay for the Inhibitors of Schistosoma Mansoni Peroxiredoxins; also: nearly all actives have a fitted effect of over 60% in size
Settings: purified TGR, DTNB reduction, TNB absorbance 405 nm; series mostly up to 114 µM
The campaign covered roughly 360,000 compounds. About 11,000 (3.1%) were called active. About 4% were inconclusive and are not listed. Calls follow the shape of the dose curve; as a rule, active = well fitted inhibition curve with a large enough effect; inconclusive = small, poorly fitted or top-dose-only effect; inactive = no such curve, though single readings can be large or run the other way. The list comes from a sample in which actives are over-represented; it also holds close analogues and randomly drawn compounds.
Choose one outcome from this list and give only that: true (active), false (inactive)

Examples with answers:
CC(=O)c1ccc(NC(=O)c2nc(-c3ccc(C)cc3)n3c2CCCCC3)cc1 = false
O=C1[C@@H]2C(Cc3ccc(O)cc3)NC3(C(=O)Nc4ccc(F)cc43)[C@@H]2C(=O)N1c1ccc(F)cc1 (some centres undefined) = false
CCOc1ccc(N2C(=O)CC(N(CCc3ccc(OC)c(OC)c3)C(=S)Nc3ccccc3)C2=O)cc1 (centres undefined) = false
CCCCOC(=O)c1ccc(N2C(=O)CC(N3CCN(C/C=C/c4ccccc4)CC3)C2=O)cc1 (centres undefined) = false
O=C1C=C(c2ccc(Cl)cc2)C(=O)N1Nc1ccccc1 = false

Test call, this compound: "COc1ccc(NC(=O)c2sc3nc[nH]c(=O)c3c2C)cc1"
false

For "Cc1noc2ncnc(NCc3ccccc3Cl)c12" , what call appears in the results of this test?
false

Which outcome was entered for the compound COc1cccc(NC(=O)N2CCCC2C(=O)NC2CCCCC2)c1 (centres undefined) in this test?
false

# fetch the recorded call for CCC1CCCCN1C(=S)Nc1ccc(C(C)=O)cc1 (centres undefined) here
false

Which result was noted for this compound in the test: COc1cc(C(=O)NCC(c2ccc(Cl)cc2)N2CCOCC2)cc(OC)c1OC (centres undefined)
false

Status in this test for "Cc1ccc(CCNC(=O)c2nnc(Cc3cccc(F)c3)o2)cc1" ?
false

Would you mind telling me which call this test gave "CCc1ccccc1NC(=O)c1ccc(F)c(S(=O)(=O)NC2CCCCCC2)c1" ?
false

Called result for "C[C@@H]1C[C@@H]2O[C@H]2/C=C\C=C\C(=O)Cc2c(Cl)c(O)cc(O)c2C(=O)O1"
true

Look up the recorded call for "CCOc1ccc(S(=O)(=O)c2cn(Cc3ccccc3)c3ccc(OCC)cc3c2=O)cc1" in this test.
false

====

Molecular target: Schistosoma mansoni thioredoxin glutathione reductase (TGR) (UniProt Q962Y6)
Assay: qHTS Assay for the Inhibitors of Schistosoma Mansoni Peroxiredoxins; also: nearly all actives have a fitted effect of over 60% in size
Settings: purified TGR, DTNB reduction, TNB absorbance 405 nm; series mostly up to 114 µM
Hit rate of the full screen: of about 360,000 compounds, about 11,000 (3.1%) were called active. Inconclusive results (about 4%) are left out. The call rests on the fitted dose curve; in most records, active means well fitted inhibition curve with a large enough effect; inconclusive means small, poorly fitted or top-dose-only effect; inactive means no such curve, though single readings can be large or run the other way. Many of the other results were omitted from the sample, so actives are more common in it than they were.
Assign a class; possible classes are active, inactive

Worked examples follow.
CSc1nc(=O)c2c(n1C)NC(=O)CC2c1ccccc1OC(C)C (stereo unspecified) = inactive
CC(C)c1ccc(NC(=O)C2CCN(c3nc(-c4ccc(C(C)C)cc4)no3)CC2)cc1 = inactive
C=CCC1(CC=C)CCCN1C(=O)CC1C(=O)NCCN1Cc1ccccc1OC (stereo unspecified) = inactive
CCN(Cc1ccccc1)Cc1c(O)ccc2c(=O)c(-c3ccc(Cl)cc3Cl)coc12 = inactive
O=C1NC(=O)N(c2ccc(F)cc2)C(=O)/C1=C/c1ccc2c(c1)CCCN2Cc1ccccc1 = active
CC1CCCN(C(=O)c2cc(-c3ccco3)nc3ccccc23)C1 (stereo unspecified) = active

// next entry
Look up the recorded call for COc1cc(OC)c(NC(=O)N2CC3CCCN3c3ccccc32)cc1Cl (stereo unspecified) in this test.
inactive
